Values from patent US20240067748A1

# assay-target: T1, human TROP2 protein (Sino Biological, #10428-H08H) (human, UniProt P09758 27-274)
# T1 construct: bought protein; also called human Trop2 protein antigen (His tag); not shown: His tag
# T1 sequence (looked up): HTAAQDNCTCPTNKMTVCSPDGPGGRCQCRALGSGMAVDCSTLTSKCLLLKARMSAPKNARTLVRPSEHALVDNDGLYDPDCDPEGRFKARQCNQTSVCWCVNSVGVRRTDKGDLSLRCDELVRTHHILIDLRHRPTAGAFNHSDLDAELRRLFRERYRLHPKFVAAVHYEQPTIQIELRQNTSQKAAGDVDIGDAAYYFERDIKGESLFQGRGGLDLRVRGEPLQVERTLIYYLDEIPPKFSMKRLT
# assay-overview: BLI, Octet RED96, AHC sensor
measure: koff (s⁻¹)
State the answer as a number, implicitly in s⁻¹.

Field: example entries. Status: answers known.
PR001171 (antibody, human IgG1, kappa, V domains shown, fully human IgG1/kappa; also called antibody No. (30)) VH: QVQLVESGGGVVQPGRSLRLSCAASGFTFSHYGMHWVRQAPGKGLEWVAVIWYDGIKKNYVESVKGRFTISRDNSKNTLNLQMNRLRAEDTAVYYCARDGGFGESNYYGLDVWGQGTTVTVSS VL: DIQLTQSPSFLSASVGDRVTITCRASQGISSYLGWYQQKPGKAPKLLIYIASTLQSGVPSRFSGSGSGTEFTLTISSLQPEDFATYYCQQLNSYPYTFGQGTKLEIKR: 3.74e-06
PR001133 (antibody, human IgG1, kappa, V domains shown, fully human IgG1/kappa; also called antibody No. (5)) VH: QVNLVESGGGVVQPGRSLKLSCAASGFTFSSYGMHWVRQAPGKGLEWVALIWSDGTNRYYTESVKGRFTISRDNSKNTLSLQMKSLRAEDTAVYYCAKDGWGTYGEYFQHWGQGTLVTVSS VL: DIQMTQSPSSLSASVGDRVTITCRASQNINSYLHWYQQKPGKAPKLLIYAASSLQSGVPSRFSGSGSGTDFTLTISSLQPEDFAIYYCQQSYSIPPITFGQGTRLEIKR: 9.72e-05

Moving on to the next binder.
(Q) Value lookup for koff; key = PR001143 (antibody, human IgG1, kappa, V domains shown, fully human IgG1/kappa; also called antibody No. (10)) VH: QVQLVESGGGVVQPGRSLRVSCAASGFIFSTYGMHWVRQAPGKGLEWVAVIWYDGSNEDYVDSVKGRFTISRDNSKNTLYLQMNSLRGEDTAVYYCARGGYNSGWWAFDVWGQGTLVTVSS VL: DIQMTQSPSSLSASVGDRVTITCRASQGISHFLAWYQQKPGKVPKLLIYAASTLQSGVPSRFSGSGSGTDFTLTISSLQPEDVATYYCQKFNSAPLTFGGGTKVEIKR
(A) 0.000556
